Assay: Toxicity liver stage against HepG2, at 10uM
Assay type: cell-based
Design: test concentration 10 uM, cell line HepG2-A16-CD81EGFP
Details: human, HepG2-A16-CD81EGFP cells; read-out: INHIBITION
MEASUREMENT NAME: cytotoxicity at 10 µM (%)
Give the value in % but do not write % after it.

Below are worked cases with known answers.
>>> measurement("CC(C)N(CC(N)=O)Cc1cccc(C(F)(F)F)c1")
0.292
>>> measurement("O=C(c1cnc(-c2ccco2)s1)N1CCCC1Cn1cccn1 (stereo not drawn)")
-1.08

query: Need cytotoxicity at 10 µM, item CNC(=O)[C@@H]1COC[C@H]2CN(C(=O)COc3ccccc3)C[C@H]21
result: -1.65

###

Experiment: Toxicity liver stage against HepG2, at 10uM
Assay type: cell-based
Design: test concentration 10 uM, cell line HepG2-A16-CD81EGFP
Details: human, HepG2-A16-CD81EGFP cells; read-out: INHIBITION
MEASUREMENT NAME: cytotoxicity at 10 µM (%)
Give the value in % but do not write % after it.

query: Need cytotoxicity at 10 µM, item COCC(=O)N1CC[C@@H]2O[C@H](COCc3ccncc3)CC[C@@H]21
result: 2.6

###

Experiment: Toxicity liver stage against HepG2, at 10uM
Assay type: cell-based
Design: test concentration 10 uM, cell line HepG2-A16-CD81EGFP
Conditions: human, HepG2-A16-CD81EGFP cells; read-out: INHIBITION
MEASUREMENT NAME: cytotoxicity at 10 µM (%)
Give the value in % but do not write % after it.

>>> measurement("Cc1nc2c(c(N[C@@H](CO)C(N)=O)n1)Cc1ccccc1OC2")
2.8
>>> measurement("O=C(Cn1ccnc1)N1CCC(n2cc(-c3cccc(Cl)c3)nn2)CC1")
-23.4
>>> measurement("O=C(COCCOc1ccccc1)Nc1ccnn1CC1CCOC1 (centres undefined)")
1.88
>>> measurement("N#CCCn1cnc2c(Br)cc(Br)cc2c1=O")
-5.35
>>> measurement("CC(C)C[C@H](N)c1nnc(SCC(=O)Nc2ccc(Br)cc2)o1")
-4.99

query: Need cytotoxicity at 10 µM, item CC(C)N1CCCC(c2cc(C(F)(F)F)nc3nccn23)C1 (centres undefined)
result: -11.1

query: Need cytotoxicity at 10 µM, item CC(C)(C)c1nc(CNC(=O)N2CCc3ccccc3C2CO)no1 (centres undefined)
result: 6.56

query: Need cytotoxicity at 10 µM, item CNc1nc(CNC(=O)Nc2cccc(CSC)c2)cs1
result: -3.01

query: Need cytotoxicity at 10 µM, item CC(O)CN1CCC(CN(C)Cc2cccc(C(=O)N(C)C)c2)CC1 (centres undefined)
result: -5.74

###

Assay: Toxicity liver stage against HepG2, at 10uM
Format: cell-based
Set-up: test concentration 10 uM, cell line HepG2-A16-CD81EGFP
Details: human, HepG2-A16-CD81EGFP cells; read-out: INHIBITION
MEASUREMENT NAME: cytotoxicity at 10 µM (%)
Give the value in % but do not write % after it.

>>> measurement("c1cnn(Cc2ccc(CN3CCC4(CCCNC4)C3)cc2)c1 (stereo unspecified)")
-3.71
>>> measurement("COc1ccccc1NCc1cscn1")
-0.358

query: Need cytotoxicity at 10 µM, item CN(C)Cc1cnc2n1CCN(C(=O)NCc1ccccc1)CC2
result: -6.41

query: Need cytotoxicity at 10 µM, item COc1ccccc1OC1CN(C(=O)Cc2c(C)nc(N)nc2C)C1
result: 0.866

query: Need cytotoxicity at 10 µM, item CS(=O)(=O)N1CCCCC12CCCN(Cc1nccs1)C2 (stereo unspecified)
result: 9.94

query: Need cytotoxicity at 10 µM, item CN(C)S(=O)(=O)c1ccc(CN2CCC(C(N)=O)CC2)o1
result: 0.214
